Test: recombinant UMI read abundance after kanamycin selection (control-corrected) (log10(CPM+1)); higher = more efficient recombination; extreme values may be limits of the assay; sequences stand for … in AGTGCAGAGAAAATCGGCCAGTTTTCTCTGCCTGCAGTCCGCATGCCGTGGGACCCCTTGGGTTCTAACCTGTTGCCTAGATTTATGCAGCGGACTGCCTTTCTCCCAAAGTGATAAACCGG…AGGTTGGTTTCACT; site = the 11-nt donor
Reported recombinant UMI read abundance (log10) by item:

For orientation, consider the following solved cases.
ORDERED_RESIDUES | RECORDED_MEASUREMENT
CCGGTAACATGGACCGGTTTTCCCGGTAATCCGTATTTGCG (site CCGGTAACTCG) | 0.686
CAAGGAGCATGGACCGGTTTTCCCGGTAATCCGTATTTGCT (site CAAGAAGCTAG) | 2.45
CACAACGCATGGACCGGTTTTCCCGGTAATCCGTATTTGCA (site CACAACGCTTG) | 2.49

Request the reported recombinant UMI read abundance (log10) associated with TGCTAGTCATGGACCGGTTTTCCCGGTAATCCGTATTTGAC (site TGCTAGTCTGT) 0

Form field: reported recombinant UMI read abundance (log10) of TAGACTACATGGACCGGTTTTCCCGGTAATCCGTATTTGCA (site TAGAGTACTTG) 0.0124

---

Assay: recombinant UMI read abundance after kanamycin selection (control-corrected) (log10(CPM+1)); higher = more efficient recombination; extreme values may be limits of the assay; sequences stand for … in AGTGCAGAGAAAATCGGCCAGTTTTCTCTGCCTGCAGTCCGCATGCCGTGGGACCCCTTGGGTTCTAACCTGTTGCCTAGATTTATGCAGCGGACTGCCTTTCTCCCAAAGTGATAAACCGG…AGGTTGGTTTCACT; site = the 11-nt donor
METRIC: recombinant UMI read abundance (log10)
Would you mind answering with just the numeric figure?

ORDERED_RESIDUES | recombinant UMI read abundance (log10)
CTTCTCTCATGGACCGGTTTTCCCGGTAATCCGTATTTGTC (site CTTCTCTCTAA) | 1.6
ATACGGCCATGGACCGGTTTTCCCGGTAATCCGTATTTGAC (site ATACGGCCTGT) | 0

What measured recombinant UMI read abundance (log10) goes with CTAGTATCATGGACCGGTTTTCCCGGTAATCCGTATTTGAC (site CTTTTATCTGT) ? 1

If you can, please state the reported recombinant UMI read abundance (log10) value of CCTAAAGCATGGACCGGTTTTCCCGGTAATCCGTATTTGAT (site CCCAAAGCTAT) . 0.0148

Item under review: GGCGGGGCATGGACCGGTTTTCCCGGTAATCCGTATTTGTA (site GGCGGGGCTTA) . Reported recombinant UMI read abundance (log10)? 1.53

---

Assay: recombinant barcode read abundance after kanamycin selection (control-corrected) (log10(CPM+1)); higher = more efficient recombination; sequences stand for … in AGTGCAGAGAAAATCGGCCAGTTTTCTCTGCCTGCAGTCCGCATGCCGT…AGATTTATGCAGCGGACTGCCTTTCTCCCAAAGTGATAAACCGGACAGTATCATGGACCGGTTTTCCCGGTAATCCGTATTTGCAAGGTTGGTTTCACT; site = the 11-nt target
Overview of reported recombinant barcode read abundance (log10) across a group of sequences:
Lab note: record just the number, no unit beside it.

ORDERED_RESIDUES | RECORDED_MEASUREMENT
CCTTGTACTTGGGTTCTAACCTGTTGCTT (site CCTTGTACTAA) | 0.131

Looking for the measured recombinant barcode read abundance (log10) of TAGAAGACTTGGGTTCTAACCTGTTGCAT (site TAGAAGACTAT) , can you help? 1.01

# input sequence: CGAGGGACTTGGGTTCTAACCTGTTGCCT (site CGAGGGGCTAG) ; wanted: its recombinant barcode read abundance (log10) 0.807

Requested read-out: recombinant barcode read abundance (log10). Entry: TAGAAGGCTTGGGTTCTAACCTGTTGCCT (site TAGAAGGCTAT) 0.325

Could you tell me which recombinant barcode read abundance (log10) is on file for ACTGGTTCTTGGGTTCTAACCTGTTGCCG (site TACTCACCTAA) ? 0.0451

Recorded recombinant barcode read abundance (log10) for TCCTGGCCTTGGGTTCTAACCTGTTGCCT (site TCCAGGGCTAG) , please? 0.209

# recombinant barcode read abundance (log10) lookup, item GGGTAACCTTGGGTTCTAACCTGTTGCCT (site GGGTAACCTAG) 0.406

Give the measured recombinant barcode read abundance (log10) of TGGATGCCTTGGGTTCTAACCTGTTGCCT (site TGGATGCCTAG) . 0.884

Please look up its recombinant barcode read abundance (log10): AGTCTAGCTTGGGTTCTAACCTGTTGCCA (site AGTCTAGCTAG) 0.176

Bench note: what recombinant barcode read abundance (log10) did TAGGCTCCTTGGGTTCTAACCTGTTGCAC (site TAGGCTCCTTT) show? 0.726

---

Assay: recombinant barcode read abundance after kanamycin selection (control-corrected) (log10(CPM+1)); higher = more efficient recombination; sequences stand for … in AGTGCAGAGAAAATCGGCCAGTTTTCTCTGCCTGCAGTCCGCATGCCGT…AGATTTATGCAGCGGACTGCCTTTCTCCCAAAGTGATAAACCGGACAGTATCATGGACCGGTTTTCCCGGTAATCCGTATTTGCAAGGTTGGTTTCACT; site = the 11-nt target
Rule: recombinant barcode read abundance (log10) under 0.1 gives Criterion not met, otherwise Criterion met.

Here's what some known entries look like.
ORDERED_RESIDUES | LABEL
GGACGGCCTTGGGTTCTAACCTGTTGCCT (site GGACGGCCTAG) | Criterion met
TCAAGGCCTTGGGTTCTAACCTGTTGCCT (site ACAAGGCCTAG) | Criterion met
TCTCAGGCTTGGGTTCTAACCTGTTGCCG (site TCACAGGCTCG) | Criterion met
AAACCGCCTTGGGTTCTAACCTGTTGCCT (site AAACCGCCTAG) | Criterion met
AACAGGTCTTGGGTTCTAACCTGTTGCCT (site ATCAGGTCTAG) | Criterion not met
AATGGGCCTTGGGTTCTAACCTGTTGCCT (site AATGGGACTAG) | Criterion met
TCCCAAACTTGGGTTCTAACCTGTTGCAC (site CTAACTGCTAC) | Criterion not met
TCCGAGACTTGGGTTCTAACCTGTTGCCC (site TCCGAGACTTG) | Criterion not met

Kindly determine if recombinant barcode read abundance (log10) recorded for CGATTAGCTTGGGTTCTAACCTGTTGCCT (site CGATTAACTAG) is above or exactly 0.1. Criterion met

Please tell me: is the sequence TCTTGTCCTTGGGTTCTAACCTGTTGCGG (site TCTTGTCCTGC) at or over 0.1 in terms of recombinant barcode read abundance (log10)? Criterion met

---

Assay: recombinant UMI read abundance after kanamycin selection (control-corrected) (log10(CPM+1)); higher = more efficient recombination; extreme values may be limits of the assay; sequences stand for … in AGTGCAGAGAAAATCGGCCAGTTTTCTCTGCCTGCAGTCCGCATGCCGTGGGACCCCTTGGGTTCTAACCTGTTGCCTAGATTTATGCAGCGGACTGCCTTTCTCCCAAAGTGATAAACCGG…AGGTTGGTTTCACT; site = the 11-nt donor
METRIC: recombinant UMI read abundance (log10)
// no unit, no text: just the number

ORDERED_RESIDUES | recombinant UMI read abundance (log10)
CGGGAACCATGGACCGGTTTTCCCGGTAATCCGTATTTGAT (site TGGGAACCTAT) | 0
TGGCCGGCATGGACCGGTTTTCCCGGTAATCCGTATTTGGG (site TGGCCGGCTTC) | 0.00405
GTATGCACATGGACCGGTTTTCCCGGTAATCCGTATTTGTT (site GTATGCACTAA) | 1.32
ATCTCAGCATGGACCGGTTTTCCCGGTAATCCGTATTTGGG (site AGCTCAGCTCC) | 0.0129

Okay, next one:
Recorded recombinant UMI read abundance (log10) for TAATTCCCATGGACCGGTTTTCCCGGTAATCCGTATTTGCT (site CAATTCCCTAG) , please? 0.55

---

Experiment: recombinant barcode read abundance after kanamycin selection (control-corrected) (log10(CPM+1)); higher = more efficient recombination; sequences stand for … in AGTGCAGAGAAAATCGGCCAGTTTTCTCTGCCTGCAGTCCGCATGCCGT…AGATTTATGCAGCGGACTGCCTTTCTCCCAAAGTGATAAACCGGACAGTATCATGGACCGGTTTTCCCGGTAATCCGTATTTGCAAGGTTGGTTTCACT; site = the 11-nt target
Grouping by measured recombinant barcode read abundance (log10) is done with the following cut points: class A (below 0.1), class B (0.1 to below 0.6), class C (0.6 or more)

Reference set (6 entries):
ORDERED_RESIDUES | LABEL
TAGTGCTCTTGGGTTCTAACCTGTTGCCA (site TAGTGCTCTAG) | class B
CCATAGGCTTGGGTTCTAACCTGTTGCTG (site GAGAGAACTAG) | class A
ATCTTATCTTGGGTTCTAACCTGTTGCCT (site ATCTTACCTAG) | class B
GTGACCTCTTGGGTTCTAACCTGTTGCTG (site GGGACCTCTGA) | class A
CTATGTCCTTGGGTTCTAACCTGTTGCGT (site CTATGTCCTAC) | class C
GGTCGGACTTGGGTTCTAACCTGTTGCGT (site GGAGGGACTAC) | class A

Place this sequence in its band: GTCCTACCTTGGGTTCTAACCTGTTGCCT (site GTCGTACCTAG) class B

Into which bin does this sequence go? CCTCGATCTTGGGTTCTAACCTGTTGCAT (site CCTCGATCTAT) class C

Sort TCGTTGCCTTGGGTTCTAACCTGTTGCCT (site TCGTTGCCTAG) into one of the categories. class B

Could you place CTGAGAGCTTGGGTTCTAACCTGTTGCCT (site CCGAGAGCTAG) in its proper category? Many thanks. class A

Please classify: AGTTGTCCTTGGGTTCTAACCTGTTGCGT (site AGTTGTCCTAG) class B

Category of AGTAAGACTTGGGTTCTAACCTGTTGCTT (site AGTAAGACTAG) , please. class B

Input GGGCATCCTTGGGTTCTAACCTGTTGCTT (site GTGCACCCTAA) ; output its category class C

Class for ACAGATTCTTGGGTTCTAACCTGTTGCCT (site ACAGATTCTAG) ? class C

Category of TAACTCTCTTGGGTTCTAACCTGTTGCCT (site TGACTCTCTAG) : class A

Category of GCGGGTACTTGGGTTCTAACCTGTTGCCT (site GCGGGTACTAG) , please. class C

Please let me know in which category the item CCAGATTCTTGGGTTCTAACCTGTTGCCT (site CAAGATTCTAG) belongs. class B

Entry ACATCAACTTGGGTTCTAACCTGTTGCCT (site ACGTCAACTAG) belongs to which category? class A

Bin this entry: TAGGTCACTTGGGTTCTAACCTGTTGCAT (site TAGGTCACTAT) class C

For CTCATTCCTTGGGTTCTAACCTGTTGCAT (site CTCATTCCTAA) , which recombinant barcode read abundance (log10) bin applies? class A

Record GTCCCTCCTTGGGTTCTAACCTGTTGCAT (site GTCCCTCCTAT) — which class? class C

Band for the recorded recombinant barcode read abundance (log10) of CGGCCGCCTTGGGTTCTAACCTGTTGCTT (site GGGTCGCCTAA) ? class A
